B1: TPR t1 (parent)
chain: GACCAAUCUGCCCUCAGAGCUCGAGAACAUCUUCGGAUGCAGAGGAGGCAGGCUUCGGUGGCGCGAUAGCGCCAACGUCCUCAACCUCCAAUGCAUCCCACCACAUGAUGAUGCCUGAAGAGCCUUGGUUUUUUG

variants of: B1; assay: polymerase ribozyme fitness, log enrichment relative to wild type (log ratio); higher = more active; in vitro selection for triplet polymerase activity

changes: G36C G63U A83G U126G
polymerase ribozyme fitness (log ratio): -5.42
--
changes: G63A U96G U112A
polymerase ribozyme fitness (log ratio): -1.56
--
changes: C73U C102A
polymerase ribozyme fitness (log ratio): -1.58
--
changes: C97G U112G
polymerase ribozyme fitness (log ratio): -5.5
--
changes: C12G C76U
polymerase ribozyme fitness (log ratio): -0.0382
--
changes: C31G C88G G110A U126G
polymerase ribozyme fitness (log ratio): -6.03
--
changes: A37U C101A G120A
polymerase ribozyme fitness (log ratio): -0.798
--
changes: G42A C56A
polymerase ribozyme fitness (log ratio): -1.64
--
changes: U116A U129A
polymerase ribozyme fitness (log ratio): -4.24
--
changes: C8U G61A C70U U87G C89G
polymerase ribozyme fitness (log ratio): -5.05
--
changes: C11A C40A C49G C94U
polymerase ribozyme fitness (log ratio): -3.79
--
changes: G35A G48U
polymerase ribozyme fitness (log ratio): -3.78
--
changes: C8U G10C C13A C34A C40U C98G A103C
polymerase ribozyme fitness (log ratio): -3.92
--
changes: A46U G61U
polymerase ribozyme fitness (log ratio): -0.648
--
changes: C86A C124A
polymerase ribozyme fitness (log ratio): 1.35
--
changes: G25U C76A G113C
polymerase ribozyme fitness (log ratio): -5.51
--
changes: C22G U38A C64U G77U G120A
polymerase ribozyme fitness (log ratio): -3.99
--
changes: C4G C22U G23A A66U A83G C97G C99U U106A G113U C124A
polymerase ribozyme fitness (log ratio): -7.47
--
changes: C13A C40U
polymerase ribozyme fitness (log ratio): -1.37
--
changes: A26U G42U G69C C72A C79U G110C
polymerase ribozyme fitness (log ratio): -7.46
--
changes: U21A A27G G51U U116C
polymerase ribozyme fitness (log ratio): -7.29
--
changes: G10U C28G G60A C85A U131G
polymerase ribozyme fitness (log ratio): -4.5
--
changes: C4G G48U C70U
polymerase ribozyme fitness (log ratio): -3.27
--
changes: C89A A90G
polymerase ribozyme fitness (log ratio): -1.53
--
changes: G63A U106A U133G
polymerase ribozyme fitness (log ratio): -1.47
--
changes: A41U C56A U87C
polymerase ribozyme fitness (log ratio): -1.49
--
changes: G47U C53G C56G
polymerase ribozyme fitness (log ratio): -2.42
--
changes: G35A G122U C123G
polymerase ribozyme fitness (log ratio): -4
--
changes: C22G G77C C88G C123U
polymerase ribozyme fitness (log ratio): -3.61
--
changes: G61A U81A
polymerase ribozyme fitness (log ratio): -0.273
--
changes: G60C C86A G117C C123U
polymerase ribozyme fitness (log ratio): -6.38
--
changes: U9A G122A
polymerase ribozyme fitness (log ratio): 0.926
--
changes: A6G U7G A18C G48U C53A G63A C115A U133A
polymerase ribozyme fitness (log ratio): -1.29
--
changes: C20U G57A G58C
polymerase ribozyme fitness (log ratio): -2.72
--
changes: C94A A95C U131G
polymerase ribozyme fitness (log ratio): -2.37
--
changes: A46U C70U C124U
polymerase ribozyme fitness (log ratio): -0.517
--
changes: C8G U126C
polymerase ribozyme fitness (log ratio): -0.307
--
changes: G61A U92A
polymerase ribozyme fitness (log ratio): -2.76
--
changes: C12G A121U
polymerase ribozyme fitness (log ratio): 1.78
--
changes: C4A U55C
polymerase ribozyme fitness (log ratio): -2.5
--
changes: A50U A100C A111G
polymerase ribozyme fitness (log ratio): -2.38
--
changes: G47C C101A
polymerase ribozyme fitness (log ratio): -2.59

Sourced from the RNAGym collection of RNA variant scans (doi:10.1073/pnas.2313332121)
